Source of measurements: ChEMBL document CHEMBL1201861

- Test system: NCI-H1770;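 further: growth inhibition of NCI-H1770 cells determined with a viability readout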
- PROCEDURE_DETAILS: cells
- Assay type: functional, cell-based
- EXPERIMENTAL_CONDITIONS: Homo sapiens
- Description: SANGER: Inhibition of human NCI-H1770 cell growth in a cell viability assay.
pIC50: −log10 of the molar value.
Reported pIC50 values for a set of molecules

Inquiry: Consider the molecule shown here: CNC(=O)c1cc(Oc2ccc(NC(=O)Nc3ccc(Cl)c(C(F)(F)F)c3)cc2)ccn1 [SORAFENIB] What is its recorded pIC50?
Reply text: < 5.40

---

- Tested on: Lu-65;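 further: growth inhibition of Lu-65 cancer cells, read out by a cell viability assay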
- PROCEDURE_DETAILS: cells
- Assay type: functional, cell-based
- EXPERIMENTAL_CONDITIONS: Homo sapiens
- Description: SANGER: Inhibition of human LU-65 cell growth in a cell viability assay.
Reported IC50 by item:

Inquiry: Would you kindly share the measured IC50 for `CCOc1nc(NC(=O)Cc2cc(OC)ccc2OC)cc(N)c1C#N` ?
Reply text: > 10 µM

Inquiry: Thanks! And C[C@]1(O)C[C@@H](c2nc(-c3ccc4ccc(-c5ccccc5)nc4c3)c3c(N)nccn32)C1 [LINSITINIB] ?
Reply text: > 2.56 µM

Inquiry: What do you have for CN(Cc1cnc2nc(N)nc(N)c2n1)c1ccc(C(=O)N[C@@H](CCC(=O)O)C(=O)O)cc1 [METHOTREXATE] ?
Reply text: > 0.2 µM

Inquiry: Request: C=CCc1cccc(/C=N/NC(=O)CN2CCN(Cc3ccccc3)CC2)c1O [PAC-1]
Reply text: > 2.56 µM

Inquiry: Try C=C1C(=O)O[C@@H]2C3O[C@]3(C)CC/C=C(\C)CC[C@@H]12 (stereo partly drawn) next.
Reply text: > 5 µM

Inquiry: Another: Cn1cncc1[C@@](N)(c1ccc(Cl)cc1)c1ccc2c(c1)c(-c1cccc(Cl)c1)cc(=O)n2C [TIPIFARNIB]
Reply text: > 16 µM

Inquiry: Same read-out for CC1=C2C[C@H]3[C@@H](CC=C4C[C@@H](O)CC[C@@]43C)[C@@H]2CC[C@]12O[C@@H]1C[C@H](C)CN[C@H]1[C@H]2C [CYCLOPAMINE] ?
Reply text: > 16 µM

Inquiry: // same read-out, input: Cn1cc(C2=C(c3ccc(Cl)cc3Cl)C(=O)NC2=O)c2ccccc21 [SB-216763]
Reply text: > 10 µM
